- Experimental System: α-glycosidase
- Test Description: α-Glycosidase inhibitory assay (spectrophotometric, 4-pNPG substrate, 405 nm)
- Assay Context: 0.5 U/mL α-glycosidase, 5 mM 4-pNPG, phosphate buffer pH 6.9, compounds 5–250 μM
Reported IC50 is given for each of the following molecules.
Measured Metric: IC50 (µM)

Molecule	Measured Metric	Measurement
Cc1ccc(-c2cc3ccc(OCc4cn(Cc5cc(=O)oc6c(C)c(O)ccc56)nn4)cc3oc2=O)cc1 [4b]	IC50	123
Cc1c(O)ccc2c(Cn3cc(COc4ccc5cc(-c6ccc([N+](=O)[O-])cc6)c(=O)oc5c4)nn3)cc(=O)oc12 [4e]	IC50	39
Cc1c(O)ccc2c(Cn3cc(COc4ccc5cc(-c6ccc(F)cc6)c(=O)oc5c4)nn3)cc(=O)oc12 [4d]	IC50	93.5
COc1ccc(-c2cc3ccc(OCc4cn(Cc5cc(=O)oc6c(C)c(O)ccc56)nn4)cc3oc2=O)cc1 [4c]	IC50	109
C[C@H]1O[C@H](O[C@H]2[C@H](O)[C@@H](O)[C@@H](O[C@H]3[C@H](O)[C@@H](O)C(O)O[C@@H]3CO)O[C@@H]2CO)[C@H](O)[C@@H](O)[C@@H]1N[C@H]1C=C(CO)[C@@H](O)[C@H](O)[C@H]1O (stereo partly drawn) [Acarbose, reference compound]	IC50	64.5
Cc1c(O)ccc2c(Cn3cc(COc4ccc5cc(-c6ccccc6)c(=O)oc5c4)nn3)cc(=O)oc12 [4a]	IC50	95

----------
- Experimental System: α-glycosidase
- Test Description: Kinetic analysis of α-glycosidase inhibition (Lineweaver–Burk and Dixon plots)
- Assay Context: Dixon plot
Measured Metric: Ki (µM)

1) Cc1c(O)ccc2c(Cn3cc(COc4ccc5cc(-c6ccc([N+](=O)[O-])cc6)c(=O)oc5c4)nn3)cc(=O)oc12 19.9
